System: SK-OV-3 ovarian
method_summary: NCI tumour cell line growth inhibition, 48 h
Assign TGI to each entry below.

Consider the molecule "Cc1ccc(N2C(=O)/C(=C3\Sc4c(nc(C)n(C)c4=O)N3c3ccccc3)SC2=S)cc1" and give its recorded TGI.
> 100 µM

Tell me TGI reported for "COC(=O)c1ccc2cc(O)ccc2c1"
> 100 µM

Provide only the value of recorded TGI for "COc1ccc(-c2cn(-c3cc(OC)c(OC)c(OC)c3)c(=O)n2-c2ccccc2)cc1"
> 100 µM

Provide only the value of recorded TGI for "O=C1CCCC2=C1CC1=C(CCCC1=O)N2c1ccc(-c2ccccc2)cc1"
> 100 µM

Report measured TGI; entry is CC12CCC(=O)[C@@]1(C)CCCC2=O (stereo partly specified)
> 100 µM

Report TGI for "Cc1cc(C)c2nccc(NCCCN(C)C)c2c1[N+](=O)[O-]"
> 100 µM

Return value of TGI for input O=c1cccc2n1CC1CNCC2C1 (stereo unspecified) , no commentary.
> 100 µM

Read the entry "O=C(O)CCSc1ncnc2nc[nH]c12" and write its reported TGI.
> 100 µM

Read off the recorded TGI for NC(=O)c1ncn(C2OC(CO)C(O)C2O)c1NC(=S)NC(=O)c1ccccc1 (stereo unspecified)
> 100 µM

// fetch TGI given entry "Cc1ccc(S(=O)(=O)N2CCc3cc(O)c([N+](=O)[O-])cc32)cc1"
> 100 µM

Using known records, supply TGI for CCC1(c2ccc(OC)c(OC)c2)CCN2C(=O)C(O)CC21 (stereo unspecified)
> 100 µM

---

System: M19-MEL melanoma
method_summary: NCI tumour cell line growth inhibition, 48 h
For each record, write down the corresponding TGI.

Indicate the recorded TGI value for this molecule: "COc1cc(-c2nn3c(=O)n(-c4ccc(Cl)cc4)c(=O)nc3s2)cc(OC)c1OC"
> 100 µM

State its TGI: CN1C=C(C(N)=O)C2CC(O)[C@@](NC(=O)CS(N)(=O)=O)(C(=O)O)C2C1 (stereo not given in full)
15.8 µM

Please look at this molecule and report its TGI: "CC(=O)[O-].O=[N+]([O-])c1ccc([O-])c(C=NCCN=Cc2cc([N+](=O)[O-])ccc2[O-])c1.[Mn+3]"
> 100 µM

Answer with reported TGI of "O=C(NOC(=O)c1ccc([N+](=O)[O-])cc1)c1ccc(Cl)cc1"
> 100 µM

Using known records, supply TGI for NC(=O)c1ncn(C2OC(CO)C(O)C2O)c1NC(=S)NC(=O)c1ccccc1 (stereo not given)
> 100 µM

---

Tested on: SNB-75 CNS
method_summary: NCI tumour cell line growth inhibition, 48 h
Label Y when TGI >= 10 µM; otherwise N.

For this compound, is measured TGI 10 µM or higher? "N#Cc1c(-c2ccc(Cl)cc2)csc1NC(=O)Nc1cccc(C(F)(F)F)c1"
Y

Dear colleague, could you confirm whether "C=CCN(N=O)C(=O)ON1C(=O)CCC1=O" has TGI at or above 10 µM?
Y

Given the entry Cc1ccc(NCCNCC(O)CO)c2c(=O)c3ccccc3sc12 (stereo unspecified) , answer whether its TGI meets or surpasses 10 µM.
Y

Please tell me: is the compound "COc1ccc(C(=O)/C=C/c2ccc(OCCCCCCCCCCOc3ccc(/C=C/C(=O)c4ccc(OC)c(OC)c4)cc3)cc2)c(OC)c1" at or over 10 µM in terms of TGI?
Y

Assess whether reported TGI for COc1ccc2c(c1)CCC(CN1CCN(CCOC(c3ccccc3)c3ccccc3)CC1)C2O (stereo unspecified) sits at 10 µM or higher.
Y

Does the compound O=C(O)C(O)c1ccc(F)cc1 (stereo unspecified) have recorded TGI that is 10 µM or more?
Y

Confirm if TGI reported for the compound "Cc1cc(Nc2cc(N3CCN(C)CC3)nc(C#Cc3ccccc3)n2)n[nH]1" is 10 µM or above.
N

Please tell me: is the compound "CCCCCc1cc(CCCC)sc1-c1ccco1" at or over 10 µM in terms of TGI?
Y

Exam item: decide whether the reported TGI for "CO[C@H](C)[C@](O)(C(=O)OCC1=CCN2CC[C@@H](O)[C@H]12)C(C)C" is at least 10 µM.
Y

In plain terms: is recorded TGI at least 10 µM for "O=C(Nc1cccc(Cl)c1)c1cc(Cl)ccc1O" ?
N

Test whether the compound O=c1ncccn1C1OC(CO)C(O)C1F (stereo unspecified) records TGI of 10 µM or higher.
Y

---

Tested on: OVCAR-3 ovarian
method_summary: NCI tumour cell line growth inhibition, 48 h
Can you tell me TGI for the items I'm about to list?
Answer format: numeric, µM implied, no suffix.

Give reported TGI value for "CN1CCN(CCCOc2ccc3ncnc(Nc4ccc(Oc5cccc(F)c5)c(Cl)c4)c3c2)CC1"
3.74

Please give measured TGI of the following entry: "O=C(Nc1nc2ccc(F)cc2s1)c1cccnc1Nc1ccc(Cl)cc1Cl"
7.1

Identify measured TGI associated with Cc1ccc(NCCNCC(O)CO)c2c(=O)c3ccccc3sc12 (stereo not given)
4.7

Please give measured TGI of the following entry: "Brc1ccc2[nH]cc(-c3csc(-c4c[nH]c5ccc(Br)cc45)n3)c2c1"
6.95

---

Tested on: SF-539 CNS
method_summary: NCI tumour cell line growth inhibition, 48 h; in the data active = GI50 below about 0.43 µM; inactive = the rest
Respond using exactly one of the listed classes: 1 for active, 0 for inactive

Outcome logged for "COc1ccc(-c2conc2-c2ccccc2)cc1" in this assay:
1

Would you mind telling me which call this test gave "CC(=O)[O-].O=[N+]([O-])c1ccc([O-])c(C=NCCN=Cc2cc([N+](=O)[O-])ccc2[O-])c1.[Mn+3]" ?
0

Status in this test for "COc1cc(/C=C2\C(=O)Nc3ccc(Br)cc32)cc(OC)c1OC" ?
0

Dear all, I need the recorded test outcome for CC(=O)OC1Oc2cc(C)c(C)cc2-c2oc(=O)c(-c3ccccc3)cc21 (stereo not given) , thank you.
1

Hi, do you know how "COc1ccc(-c2nn(-c3cccc(Cl)c3)cc2-c2cc(-c3cccs3)no2)cc1" came out in this test?
0

---

System: MDA-MB-231 breast
method_summary: NCI tumour cell line growth inhibition, 48 h; in the data active = GI50 below about 0.43 µM; inactive = the rest
// one of active, inactive, no free text

Each molecule tested received a call. Report the one for "CN1CCN(CCCOc2ccc3ncnc(Nc4ccc(Oc5cccc(F)c5)c(Cl)c4)c3c2)CC1" .
inactive

For "NCCNc1nc2ccccc2c2c(=O)c3cc(F)cc(Cl)c3sc12" , which call appears in the assay record?
inactive

Please let me know the test result on file for "COc1ccc(-c2nn(-c3cccc(Cl)c3)cc2/C=C2\C(=N)N(c3ccccc3)N=C2N)cc1" .
inactive

Any idea what this test logged for C/C(=N\O)[C@H]1CC[C@@]2(C)[C@@H]3CC[C@H]4C(C)(C)/C(=N/O)CC[C@@]45CC35CC[C@]12C (some centres undefined) ?
inactive

Give the logged outcome of this assay for the following molecule: "CC(=O)Nc1ccc2c(c1)CN1C(=O)c3ccccc3C1=N2"
inactive

Test call for this molecule, please: "CC[C@H](C)[C@H](NC(=O)N[C@@H](C)c1ccccc1)C(=O)N(C)[C@H](C[C@@H](OC(C)=O)c1nc(C(=O)N[C@@H](Cc2ccccc2)C[C@H](C)C(=O)OC)cs1)C(C)C"
inactive

Please let me know the test result on file for "COc1ccc(-c2conc2-c2ccccc2)cc1" .
inactive

What outcome does the record of this test show for "COc1ccccc1-c1nccc(COc2ccccc2C[C@@H](Oc2ncnc3sc(-c4ccc(F)cc4)c(-c4ccc(OCCN5CCN(C)CC5)c(Cl)c4C)c23)C(=O)O)n1" ?
inactive

State the result this test recorded for "NCCn1c2c(c3ccccc3c1=O)C(=O)c1ccccc1-2" .
inactive

So what was the verdict on "O=C1c2cc3c(cc2-c2c1c1cc(F)c(F)cc1c(=O)n2C[C@H](O)CO)OCO3" in this test?
active

Field: outcome | Entry: COc1ccc(C2NC(=S)NC3=C2COc2ccc(F)cc23)cc1OC (centres undefined)
inactive

Tell me the recorded outcome of this test for "CCCC(=O)Nc1cn(COC)c(C(=O)N2C[C@H]3C[C@@]34C2=CC(=O)c2[nH]cc(C)c24)n1" .
inactive

Record request — test call for "O=C(Nc1cccc(Cl)c1)c1cc(Cl)ccc1O"
inactive

What did the test return for N#CC1=C(N)Oc2c(sc3c(Br)cccc23)C1c1ccc(F)cc1 (centres undefined) ?
inactive

Any idea what this test logged for N#CC1=C(N)NC(=S)C(C#N)C12Nc1ccccc1S2 (centres undefined) ?
inactive

What classification did "Cc1ccc(-c2cc(C(Cl)Cl)on2)cc1" end up with in this test?
inactive

GET /call?item= "CCOc1cccc(/C=N/NC(=O)Cc2ccc(Nc3ccnc(C(F)(F)F)c3)cc2)c1O" returns the recorded outcome of this test.
inactive

Field: outcome | Entry: "Cc1cc(Nc2cc(N3CCN(C)CC3)nc(C#Cc3ccccc3)n2)n[nH]1"
inactive

# fetch the recorded call for "COc1ccc(-c2nn3ncccc3c2-c2ccnc(Nc3cccc(C(F)(F)F)c3)n2)cc1" here
inactive

src = PubChem BioAssay (NCI)
